Source of measurements: patent US10556888B2

System: Monocotyledonous and dicotyledonous weed
testName: Post-emergence test experiment, weed control effect (Table 2)
Type: in vivo
Parameters: key: Level 10: completely dead; Level 9: above 90% growth inhibition rate; Level 8: above 80% growth inhibition rate; Level 7: above 70% growth inhibition rate; Level 6: above 60% growth inhibition rate; Level 5: above 50% growth inhibition rate; Level 4: above 30% growth inhibition rate; Level 3: above 20% growth inhibition rate; Level 2: above 10% growth inhibition rate; Level 1: above 1-10% growth inhibition rate; Level 0: no effect
experimentalParameters: 30 g/ha, 3 weeks after spraying, greenhouse
Reported weed control effect, Digitaria sanguinalis (level) is given for each of the following compounds.

Return value of weed control effect, Digitaria sanguinalis (level) for input CCn1nc(C2CC2)c(C(=O)c2ccc(S(C)(=O)=O)c(COCC(F)F)c2Cl)c1OC(=O)c1cn(C)nc1C [Compound 90] , no commentary. 10

Attention now turns to another entry.
Identify weed control effect, Digitaria sanguinalis (level) associated with the compound Cc1nn(C)c(OC(=O)c2cnn(C)c2)c1C(=O)c1ccc(S(C)(=O)=O)c(COCC(F)(F)F)c1Cl [Compound 63] 10
